# Tested System: HTR2C (Homo sapiens)
# Sequence (P28335 whole entry): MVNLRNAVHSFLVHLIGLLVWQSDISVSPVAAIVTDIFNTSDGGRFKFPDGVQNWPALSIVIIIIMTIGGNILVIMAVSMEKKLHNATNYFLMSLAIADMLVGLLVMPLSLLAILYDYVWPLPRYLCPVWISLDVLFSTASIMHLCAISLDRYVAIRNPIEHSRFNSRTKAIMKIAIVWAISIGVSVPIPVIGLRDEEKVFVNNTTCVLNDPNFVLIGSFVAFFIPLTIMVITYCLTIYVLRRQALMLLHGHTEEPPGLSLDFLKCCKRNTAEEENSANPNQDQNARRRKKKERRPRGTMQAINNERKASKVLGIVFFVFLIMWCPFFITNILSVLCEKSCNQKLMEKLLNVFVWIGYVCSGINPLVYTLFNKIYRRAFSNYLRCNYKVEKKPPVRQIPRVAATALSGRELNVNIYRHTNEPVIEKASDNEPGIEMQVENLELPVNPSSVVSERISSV
# Test Name: cell-based
# Set-up: species or system HEK293; TRUPATH BRET2 G-protein dissociation; antagonist mode against agonist EC80
# Conditions: Assay=Gq; agonist mode
Property: EC50 (nM)
Answers are plain numbers, in nM.

Prompt: Using the record for CCCCCCOc1nsnc1C1=CCCNC1 , report its EC50.
Completion: 1940

----------
# Tested System: β2 (Homo sapiens, UniProt P07550)
# Sequence (P07550 whole entry): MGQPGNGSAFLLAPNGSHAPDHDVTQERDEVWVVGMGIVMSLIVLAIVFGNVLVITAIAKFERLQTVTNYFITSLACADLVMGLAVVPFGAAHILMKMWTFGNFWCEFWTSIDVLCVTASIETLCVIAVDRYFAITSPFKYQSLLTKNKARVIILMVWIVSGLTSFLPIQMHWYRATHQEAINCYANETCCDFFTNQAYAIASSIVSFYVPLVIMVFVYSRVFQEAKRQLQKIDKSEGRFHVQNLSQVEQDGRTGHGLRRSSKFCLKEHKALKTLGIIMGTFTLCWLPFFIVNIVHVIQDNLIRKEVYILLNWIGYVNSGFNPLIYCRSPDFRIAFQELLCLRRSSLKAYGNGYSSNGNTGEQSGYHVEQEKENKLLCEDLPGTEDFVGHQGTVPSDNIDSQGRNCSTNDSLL
# Test Name: competitive radioligand binding, HEK293 membranes
# Parameters: gene ADRB2; full-length receptor; HEK293 cell membranes
Property: pKi
One number for each entry, as −log10 of the molar value.

Prompt: Find pKi (β2 (Homo sapiens, UniProt P07550)) for the entry CCCCCCOc1nsnc1C1=CCCNC1 [N-desmethylxanomeline]
Completion: 6.08
